System Name: human PD-L1 (human) (UniProt Q9NZQ7)
Sequence (Q9NZQ7 19-290): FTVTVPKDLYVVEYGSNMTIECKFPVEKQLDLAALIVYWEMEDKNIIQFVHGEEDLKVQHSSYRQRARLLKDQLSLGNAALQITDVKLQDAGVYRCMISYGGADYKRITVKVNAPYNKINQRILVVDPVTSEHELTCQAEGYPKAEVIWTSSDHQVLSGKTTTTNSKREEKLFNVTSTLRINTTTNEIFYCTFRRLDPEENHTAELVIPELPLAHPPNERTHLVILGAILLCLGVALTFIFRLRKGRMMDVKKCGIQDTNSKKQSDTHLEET
Assay Details: flow cytometry, Expi293F cells transfected with PD-L1
Quantity: parental ratio

# example entries with known answers
CD80 I67T/L70Q/A91G/I118V/T120S ECD-Fc (Fc fusion) VIHVTKEVKEVATLSCGHNVSVEELAQTRIYWQKEKKMVLTMMSGDMNIWPEYKNRTIFDITNNLSTVIQALRPSDEGTYECVVLKYEKDGFKREHLAEVTLSVKADFPTPSISDFEVPSSNIRRIICSTSGGFPEPHLSWLENGEELNAINTTVSQDPETELYAVSSKLDFNMTTNHSFMCLIKYGHLRVNQTFHWNTTKQEHFPDN; 0.08
CD80 A12V/S15F/Y31H/M38L/T41G/M43L/D90N/T130A/P137L/N149D/N152T ECD-Fc (Fc fusion) VIHVTKEVKEVVTLFCGHNVSVEELAQTRIHWQKEKKLVLGMLSGDMNIWPEYKNRTIFDITNNLSIVILALRPSDEGTYECVVLKYEKNAFKREHLAEVTLSVKADFPTPSISDFEIPTSNIRRIICSASGGFPELHLSWLENGEELDAITTTVSQDPETELYAVSSKLDFNMTTNHSFMCLIKYGHLRVNQTFNWNTTKQEHFPDN; 0.08

# context switch: different binder, same parental ratio
Enquiry: Any idea what parental ratio was measured for CD80 I67F/L70R/E88G/A91G/I118V/T120S/T130A ECD-Fc (Fc fusion) VIHVTKEVKEVATLSCGHNVSVEELAQTRIYWQKEKKMVLTMMSGDMNIWPEYKNRTIFDITNNLSFVIRALRPSDEGTYECVVLKYGKDGFKREHLAEVTLSVKADFPTPSISDFEVPSSNIRRIICSASGGFPEPHLSWLENGEELNAINTTVSQDPETELYAVSSKLDFNMTTNHSFMCLIKYGHLRVNQTFNWNTTKQEHFPDN ?
Return: 0.08
